System: SNB-75
Test: NCI tumour cell line growth inhibition, 48 h
The source made the active and inactive calls. No stated cut-off is given here; in the data, active = GI50 up to about 1.1 µM and inactive = higher.
endpoint name: GI50

Some compounds with known GI50 results, for comparison:
{"structure smiles string": "O=[N+]([O-])c1ccc(S[C@@H]2[C@H]3c4c(-c5ccccc5)[nH]c(-c5ccccc5)c4[C@@H]2C[C@H]3Cl)cc1", "GI50": "2.15 µM (inactive)"}
{"structure smiles string": "CC(C)=CCC/C(C)=C/CC/C(C)=C/CC/C(C=O)=C/CC/C(C)=C\\CC/C(C)=C/CC/C(C)=C/CC/C(C)=C/CC1=CC(=O)C=CC1=O", "GI50": "38.1 µM (inactive)"}
{"structure smiles string": "O=C(Oc1cccnc1)c1cc2cc(CCl)ccc2oc1=O", "GI50": "29.7 µM (inactive)"}

Query string: Return reported GI50; argument: `O=C(Nc1ccc2oc(=O)c(C(=O)O)cc2c1)Oc1ccccc1`
Result string: > 100 µM (inactive)

----------
System: BT-549
Assay: NCI tumour cell line growth inhibition, 48 h
The source made the active and inactive calls. Rule as the data show it: active = GI50 up to about 1.1 µM and inactive = higher.
endpoint name: GI50

Below, 8 compounds whose answers are already recorded.
{"compound": "Cc1cc2[nH]c3c(C#N)c(-c4ccccc4)c(/N=N/c4cccc(C(F)(F)F)c4)c(=O)n3c2cc1C", "tested on": "BT-549", "GI50": "44.2 µM (inactive)"}
{"compound": "CC(=O)/C(=C/n1ccc(=O)[nH]c1=S)C(=O)Nc1ccccc1C", "tested on": "BT-549", "GI50": "> 100 µM (inactive)"}
{"compound": "O=c1c2ccccc2nc(N/N=C/c2ccc([N+](=O)[O-])cc2)n1-c1ccccc1", "tested on": "BT-549", "GI50": "18 µM (inactive)"}
{"compound": "O=C(CC1C=CCS1(=O)=O)NCc1ccccc1 (stereo not given)", "tested on": "BT-549", "GI50": "> 100 µM (inactive)"}
{"compound": "CN(C)c1ccc(/C=C(\\NC(=O)c2ccccc2)c2nc3ccccc3c(=O)o2)cc1", "tested on": "BT-549", "GI50": "> 100 µM (inactive)"}
{"compound": "CN(/N=C/c1cccs1)c1ccc([N+](=O)[O-])cc1[N+](=O)[O-]", "tested on": "BT-549", "GI50": "> 100 µM (inactive)"}
{"compound": "CN(C)CCNC(=O)c1cccc(CO)c1[N+](=O)[O-]", "tested on": "BT-549", "GI50": "> 100 µM (inactive)"}
{"compound": "S=C(Nc1ccc2c(c1)oc1ccccc12)c1cccnc1", "tested on": "BT-549", "GI50": "37.1 µM (inactive)"}

Query string: Recorded GI50 for `O=C1C(O)=C(Cc2ccccc2)C(=O)c2ccccc21` , please?
Result string: 70.8 µM (inactive)

Query string: Could you tell me which GI50 is on file for `N#Cc1cnn2cc[nH]c12` ?
Result string: > 100 µM (inactive)

Query string: I'd like to know its GI50. The compound in question is CC(=O)Oc1cc(-c2oc3cc(OC(C)=O)c(C4OC(CO)C(O)C(O)C4O)c(OC(C)=O)c3c(=O)c2O)c(OC(C)=O)cc1O (stereo not given)
Result string: > 100 µM (inactive)

Query string: Look up GI50: COc1cc(S(=O)(=O)Nc2ccc(-c3csc(N4C(=O)CSC4c4cccs4)n3)cc2)ccc1Cl (stereo not given)
Result string: 23.6 µM (inactive)

Query string: Fill in the blank: the reported GI50 of `O=C(Nc1ccc2oc(=O)c(C(=O)O)cc2c1)Oc1ccccc1` is ____.
Result string: > 100 µM (inactive)

Query string: So what does the record say about GI50 for `O=C(O)CN1CCN2CCCCCN(CC1)CCN(CC(=O)O)CC2` ?
Result string: > 100 µM (inactive)

Query string: Please report the recorded GI50 for Cc1cn(CCOCCOC(=O)NC(CCCNC(N)=O)C(=O)O)c(=O)[nH]c1=O (stereo not given) .
Result string: > 100 µM (inactive)

Query string: Form field: reported GI50 of `CN(C)CCCN1C(=S)N(CCCN(C)C)c2c3cc(O)ccc3nc3c([N+](=O)[O-])ccc1c23`
Result string: 11.7 µM (inactive)

Query string: Any idea what GI50 was measured for `CC/C(Cl)=N\OC(=O)Nc1ccc(OC)cc1` ?
Result string: 1.6 µM (inactive)

Query string: Fill in the blank: the reported GI50 of `O[C@H]1[C@@H]2OC[C@@H](O)[C@H](OCc3ccccc3)[C@@](COCc3ccccc3)(O2)[C@@H]1OCc1ccccc1` is ____.
Result string: 17.7 µM (inactive)

Query string: Any idea what its GI50 is? The compound is `C/C(=N\NC(=S)N1CCN(c2ccccn2)CC1)c1nccs1`
Result string: 2.02 µM (inactive)

----------
Reported GI50 values for the following compounds.
Test system: 786-0
Test: NCI tumour cell line growth inhibition, 48 h
Activity calls are given as the source filed them. Cut-off read from the data, not from the text of the source: active = GI50 up to about 1.1 µM and inactive = higher.

As a guide, the following entries are already answered.
{"compound": "CCOC(=O)C1=C(C)N2CCOC2(C)C(C(=O)OC)C1c1cccc(Cl)c1 (stereo not given)", "GI50": "> 100 µM (inactive)"}
{"compound": "CCOc1ccc(/N=N/c2c(-c3ccccc3)nn(C(=O)CC(=O)Nc3ccccc3Cl)c2-c2ccccc2)cc1", "GI50": "> 100 µM (inactive)"}
{"compound": "COC(C)(C)OCCN1CCN(CCN2C3=C(C=C(C(C)=O)C3)Sc3ccccc32)CC1", "GI50": "19.1 µM (inactive)"}
{"compound": "O=C1C(=O)N(C2CCCCC2)C(=S)N1C1CCCCC1", "GI50": "> 100 µM (inactive)"}
{"compound": "Cc1ccc(C(=O)Nc2ccc(CP(=O)(O)O)cc2CP(=O)(O)O)cc1NC(=O)Nc1cc(C(=O)Nc2ccc(CP(=O)(O)O)cc2CP(=O)(O)O)ccc1C", "GI50": "> 100 µM (inactive)"}

Query string: I am curious: what GI50 value has been reported for `C[N+](C)([O-])C12CC3CC(CC(C3)C1)C2` ?
Result string: 25.5 µM (inactive)

----------
Test system: DU-145
Assay: NCI tumour cell line growth inhibition, 48 h
Active and inactive are the calls of the source. Cut-off read from the data, not from the text of the source: active = GI50 up to about 1.1 µM and inactive = higher.
Recorded GI50 for the following molecules

// below: answered molecules
{"molecule": "S=C(Nc1ccc2c(c1)oc1ccccc12)c1cccnc1", "GI50": "> 100 µM (inactive)"}
{"molecule": "CC(=O)Oc1cc(-c2oc3cc(OC(C)=O)c(C4OC(CO)C(O)C(O)C4O)c(OC(C)=O)c3c(=O)c2O)c(OC(C)=O)cc1O (stereo not given)", "GI50": "> 100 µM (inactive)"}

Query string: GI50 lookup needed for `COC(=O)[C@@H]1[C@H](O)[C@H](C)[C@H](O)[C@@](C)(O)/C=C\C=C(\C)C(=O)Nc2c(C)c(OC(C)=O)c3c(c2O)C(=O)C(C)=C2OCOC(=C23)/C(C)=C/[C@@](C)(O)[C@H](O)[C@@H](C)[C@H]1OC(C)=O` , thanks.
Result string: > 66.8 µM (inactive)

Query string: Look up GI50: COC12c3ccccc3-c3ccccc3C1[C@H]1C(=O)OC(=O)[C@H]12 (stereo not given in full)
Result string: > 10 µM (inactive)

----------
Listed below: GI50 values for each entry.
Tested on: K562
Assay: NCI tumour cell line growth inhibition, 48 h
The source made the active and inactive calls. No stated cut-off is given here; in the data, active = GI50 up to about 1.1 µM and inactive = higher.

The examples below pair each entry with its known result.
{"molecule": "O=C(Nc1ccc(Cl)cc1Cl)C1C(=O)OC2(CCCCC2)OC1=O", "GI50": "4.72 µM (inactive)"}
{"molecule": "C1CCN(c2nc(=[N+]3CCCCC3)ss2)CC1", "GI50": "90.6 µM (inactive)"}
{"molecule": "CC1(C)CC(=O)C(CC2C(=O)c3ccccc3C2=O)C(=O)C1C(=O)C(=O)Nc1cccc2ccc(O)cc12 (stereo not given)", "GI50": "40.9 µM (inactive)"}

Query string: # query: GI50 of entry `CC(=O)OCCOCn1c2ccccc2c2c3c(c4c5ccccc5n(COCCOC(C)=O)c4c21)C(=O)N(Cc1ccccc1)C3=O`
Result string: > 100 µM (inactive)

Query string: Fill in: GI50 of `Cc1ccc([N+](=O)[O-])cc1NC1=NCCO1` is ___
Result string: > 100 µM (inactive)

----------
Test system: NCI/ADR-RES
Experiment: NCI tumour cell line growth inhibition, 48 h
The source made the active and inactive calls. Cut-off read from the data, not from the text of the source: active = GI50 up to about 1.1 µM and inactive = higher.
Some compounds, each annotated with its measured GI50.

Below, 5 compounds whose answers are already recorded.
{"compound": "O=C(O)/C=N\\N=c1[nH]c2ccccc2[nH]1", "GI50": "> 100 µM (inactive)"}
{"compound": "N=C(N)NCCCC(NC(=O)c1c2ccccc2nc2ccccc12)C(=O)O (stereo unspecified)", "GI50": "> 100 µM (inactive)"}
{"compound": "Cc1nc2c(C)c3c([nH]c4ccc(Cl)cc43)c(C)c2c(O)c1C", "GI50": "8.39 µM (inactive)"}
{"compound": "O=C(O)CN1CCN2CCCCCN(CC1)CCN(CC(=O)O)CC2", "GI50": "22.1 µM (inactive)"}
{"compound": "C#CCn1c(=O)c2ccccc2n(CC#C)c1=O", "GI50": "> 10 µM (inactive)"}

Shift focus to the following entry.
Query string: Can you look up the measured GI50 of `CN(/N=C/c1cccs1)c1ccc([N+](=O)[O-])cc1[N+](=O)[O-]` for me?
Result string: > 100 µM (inactive)
